From: ChEMBL document CHEMBL5154681

Overview of recorded MIC for various compounds
test system: Pseudomonas aeruginosa; test: Antibacterial activity against Pseudomonas aeruginosa ATCC 27883 incubated for 24 hrs by microtiter plate method; type: functional; conditions: Pseudomonas aeruginosa, ATCC 27883, 24 h, read-out: MIC
Square brackets hold non-standard residues; d marks the D form. Peptide text beside a SMILES is read from it. Bip = N[C@@H](Cc1ccc(-c2ccccc2)cc1)C(=O)O; Dip = N[C@H](C(=O)O)C(c1ccccc1)c1ccccc1; 2Nal = N[C@@H](Cc1ccc2ccccc2c1)C(=O)O
Observation Type: MIC (µg/mL)

N=C(N)NCCC[C@@H]1NC(=O)[C@H](CCCNC(=N)N)NC(=O)[C@H](Cc2ccc3ccccc3c2)NC(=O)[C@H](Cc2ccc3ccccc3c2)NC(=O)[C@H](Cc2ccc3ccccc3c2)NC(=O)[C@H](CCCNC(=N)N)NC1=O (cyclo([2Nal][2Nal][2Nal]RRR))	50
N=C(N)NCCC[C@H](NC(=O)[C@H](CCCNC(=N)N)NC(=O)[C@@H](NC(=O)[C@@H](NC(=O)[C@H](CCCNC(=N)N)NC(=O)[C@@H](N)CCCNC(=N)N)C(c1ccccc1)c1ccccc1)C(c1ccccc1)c1ccccc1)C(=O)N[C@H](C(=O)O)C(c1ccccc1)c1ccccc1 (H-RR[Dip][Dip]RR[Dip]-OH)	25
N=C(N)NCCC[C@@H]1NC(=O)[C@H](CCCNC(=N)N)NC(=O)[C@H](CCCNC(=N)N)NC(=O)[C@H](C(c2ccccc2)c2ccccc2)NC(=O)[C@H](C(c2ccccc2)c2ccccc2)NC(=O)[C@H](C(c2ccccc2)c2ccccc2)NC(=O)[C@H](C(c2ccccc2)c2ccccc2)NC(=O)[C@H](CCCNC(=N)N)NC1=O (cyclo([Dip][Dip][Dip][Dip]RRRR))	25
N=C(N)NCCC[C@@H]1NC(=O)[C@H](CCCNC(=N)N)NC(=O)[C@H](CCCNC(=N)N)NC(=O)[C@H](Cc2ccc(-c3ccccc3)cc2)NC(=O)[C@H](Cc2ccc(-c3ccccc3)cc2)NC(=O)[C@H](Cc2ccc(-c3ccccc3)cc2)NC(=O)[C@H](CCCNC(=N)N)NC1=O (cyclo([Bip][Bip][Bip]RRRR))	25
N=C(N)NCCC[C@H](NC(=O)[C@H](CCCNC(=N)N)NC(=O)[C@@H](N)CCCNC(=N)N)C(=O)N[C@H](C(=O)N[C@H](C(=O)N[C@H](C(=O)O)C(c1ccccc1)c1ccccc1)C(c1ccccc1)c1ccccc1)C(c1ccccc1)c1ccccc1 (H-RRR[Dip][Dip][Dip]-OH)	25
N=C(N)NCCC[C@@H]1NC(=O)[C@H](CCCNC(=N)N)NC(=O)[C@H](CCCNC(=N)N)NC(=O)[C@H](C(c2ccccc2)c2ccccc2)NC(=O)[C@H](C(c2ccccc2)c2ccccc2)NC(=O)[C@H](CCCNC(=N)N)NC1=O (cyclo([Dip][Dip]RRRR))	25
N=C(N)NCCC[C@H](NC(=O)[C@H](CCCNC(=N)N)NC(=O)[C@H](CCCNC(=N)N)NC(=O)[C@@H](N)CCCNC(=N)N)C(=O)N[C@@H](Cc1ccc2ccccc2c1)C(=O)N[C@@H](Cc1ccc2ccccc2c1)C(=O)N[C@@H](Cc1ccc2ccccc2c1)C(=O)O (H-RRRR[2Nal][2Nal][2Nal]-OH)	25
N=C(N)NCCC[C@H](NC(=O)[C@H](Cc1ccc2ccccc2c1)NC(=O)[C@H](Cc1ccc2ccccc2c1)NC(=O)[C@H](CCCNC(=N)N)NC(=O)[C@H](CCCNC(=N)N)NC(=O)[C@H](Cc1ccc2ccccc2c1)NC(=O)[C@@H](N)CCCNC(=N)N)C(=O)O (H-R[2Nal]RR[2Nal][2Nal]R-OH)	50
N=C(N)NCCC[C@H](NC(=O)[C@H](CCCNC(=N)N)NC(=O)[C@H](CCCNC(=N)N)NC(=O)[C@@H](N)CCCNC(=N)N)C(=O)N[C@@H](Cc1ccc(-c2ccccc2)cc1)C(=O)N[C@@H](Cc1ccc(-c2ccccc2)cc1)C(=O)N[C@@H](Cc1ccc(-c2ccccc2)cc1)C(=O)O (H-RRRR[Bip][Bip][Bip]-OH)	25

###

Reported values of MIC for individual entries
tested on: Pseudomonas aeruginosa; experiment: Antibacterial activity against Pseudomonas aeruginosa ATCC 27883 incubated for 24 hrs by microtiter plate method; type: functional; settings: Pseudomonas aeruginosa, ATCC 27883, 24 h, read-out: MIC
Square brackets hold non-standard residues; d marks the D form. Peptide text beside a SMILES is read from it. Bip = N[C@@H](Cc1ccc(-c2ccccc2)cc1)C(=O)O; Dip = N[C@H](C(=O)O)C(c1ccccc1)c1ccccc1; 2Nal = N[C@@H](Cc1ccc2ccccc2c1)C(=O)O
Observation Type: MIC

N=C(N)NCCC[C@H](NC(=O)[C@H](CCCNC(=N)N)NC(=O)[C@H](CCCNC(=N)N)NC(=O)[C@@H](N)CCCNC(=N)N)C(=O)N[C@@H](Cc1ccc2ccccc2c1)C(=O)N[C@@H](Cc1ccc2ccccc2c1)C(=O)O (H-RRRR[2Nal][2Nal]-OH)	> 100 µg/mL
NCCCC[C@@H]1NC(=O)[C@H](CCCCN)NC(=O)[C@H](CCCCN)NC(=O)[C@H](C(c2ccccc2)c2ccccc2)NC(=O)[C@H](C(c2ccccc2)c2ccccc2)NC(=O)[C@H](C(c2ccccc2)c2ccccc2)NC(=O)[C@H](CCCCN)NC1=O (cyclo([Dip][Dip][Dip]KKKK))	> 100 µg/mL
NCCCC[C@H](NC(=O)[C@H](CCCCN)NC(=O)[C@@H](N)CCCCN)C(=O)N[C@@H](CCCCN)C(=O)N[C@H](C(=O)N[C@H](C(=O)N[C@H](C(=O)O)C(c1ccccc1)c1ccccc1)C(c1ccccc1)c1ccccc1)C(c1ccccc1)c1ccccc1 (H-KKKK[Dip][Dip][Dip]-OH)	> 100 µg/mL
N=C(N)NCCC[C@@H]1NC(=O)[C@H](CCCNC(=N)N)NC(=O)[C@H](Cc2ccc(-c3ccccc3)cc2)NC(=O)[C@H](Cc2ccc(-c3ccccc3)cc2)NC(=O)[C@H](Cc2ccc(-c3ccccc3)cc2)NC(=O)[C@H](CCCNC(=N)N)NC1=O (cyclo([Bip][Bip][Bip]RRR))	> 100 µg/mL
N=C(N)NCCC[C@@H]1NC(=O)[C@H](CCCNC(=N)N)NC(=O)[C@H](CCCNC(=N)N)NC(=O)[C@H](Cc2ccc3ccccc3c2)NC(=O)[C@H](Cc2ccc3ccccc3c2)NC(=O)[C@H](Cc2ccc3ccccc3c2)NC(=O)[C@H](Cc2ccc3ccccc3c2)NC(=O)[C@H](CCCNC(=N)N)NC1=O (cyclo([2Nal][2Nal][2Nal][2Nal]RRRR))	50 µg/mL
N=C(N)NCCC[C@H](NC(=O)[C@H](CCCNC(=N)N)NC(=O)[C@H](CCCNC(=N)N)NC(=O)[C@@H](N)CCCNC(=N)N)C(=O)N[C@@H](CCCNC(=N)N)C(=O)N[C@H](C(=O)N[C@H](C(=O)N[C@H](C(=O)O)C(c1ccccc1)c1ccccc1)C(c1ccccc1)c1ccccc1)C(c1ccccc1)c1ccccc1 (H-RRRRR[Dip][Dip][Dip]-OH)	50 µg/mL
N=C(N)NCCC[C@@H]1NC(=O)[C@H](CCCNC(=N)N)NC(=O)[C@H](C(c2ccccc2)c2ccccc2)NC(=O)[C@H](C(c2ccccc2)c2ccccc2)NC(=O)[C@H](CCCNC(=N)N)NC(=O)[C@H](CCCNC(=N)N)NC(=O)[C@H](C(c2ccccc2)c2ccccc2)NC1=O (stereo in doubt; 16C)	50 µg/mL
NCCCC[C@@H]1NC(=O)[C@H](CCCCN)NC(=O)[C@H](CCCCN)NC(=O)[C@H](C(c2ccccc2)c2ccccc2)NC(=O)[C@H](C(c2ccccc2)c2ccccc2)NC(=O)[C@H](C(c2ccccc2)c2ccccc2)NC(=O)[C@H](CCCCN)NC(=O)[C@H](CCCCN)NC1=O (cyclo([Dip][Dip][Dip]KKKKK))	> 100 µg/mL

###

assay: Hemolytic activity in human RBC assessed as hemolysis incubated for 2 hrs by spectrophotometer analysis; assay type: toxicity, cell-based, Erythrocyte; settings: human red blood cells (erythrocytes)
Square brackets hold non-standard residues; d marks the D form. Peptide text beside a SMILES is read from it. Dip = N[C@H](C(=O)O)C(c1ccccc1)c1ccccc1; 2Nal = N[C@@H](Cc1ccc2ccccc2c1)C(=O)O
Param label: returns 1.0 when HC50 at 2 h < 100 µg/mL, returns 0.0 otherwise, including exact equality.

N=C(N)NCCC[C@H](NC(=O)[C@H](CCCNC(=N)N)NC(=O)[C@H](CCCNC(=N)N)NC(=O)[C@@H](N)CCCNC(=N)N)C(=O)N[C@@H](CCCNC(=N)N)C(=O)N[C@H](C(=O)N[C@H](C(=O)N[C@H](C(=O)O)C(c1ccccc1)c1ccccc1)C(c1ccccc1)c1ccccc1)C(c1ccccc1)c1ccccc1 (H-RRRRR[Dip][Dip][Dip]-OH)	0.0
N=C(N)NCCC[C@@H]1NC(=O)[C@H](CCCNC(=N)N)NC(=O)[C@H](CCCNC(=N)N)NC(=O)[C@H](Cc2ccc3ccccc3c2)NC(=O)[C@H](Cc2ccc3ccccc3c2)NC(=O)[C@H](Cc2ccc3ccccc3c2)NC(=O)[C@H](CCCNC(=N)N)NC1=O (cyclo(RRRR[2Nal][2Nal][2Nal]))	1.0
NCCCC[C@H](NC(=O)[C@H](CCCCN)NC(=O)[C@H](CCCCN)NC(=O)[C@@H](N)CCCCN)C(=O)N[C@@H](CCCCN)C(=O)N[C@H](C(=O)N[C@H](C(=O)N[C@H](C(=O)O)C(c1ccccc1)c1ccccc1)C(c1ccccc1)c1ccccc1)C(c1ccccc1)c1ccccc1 (H-KKKKK[Dip][Dip][Dip]-OH)	0.0
N=C(N)NCCC[C@H](NC(=O)[C@H](CCCNC(=N)N)NC(=O)[C@@H](N)CCCNC(=N)N)C(=O)N[C@@H](CCCNC(=N)N)C(=O)N[C@H](C(=O)N[C@H](C(=O)N[C@H](C(=O)N[C@H](C(=O)O)C(c1ccccc1)c1ccccc1)C(c1ccccc1)c1ccccc1)C(c1ccccc1)c1ccccc1)C(c1ccccc1)c1ccccc1 (H-RRRR[Dip][Dip][Dip][Dip]-OH)	1.0
NCCCC[C@@H]1NC(=O)[C@H](CCCCN)NC(=O)[C@H](CCCCN)NC(=O)[C@H](C(c2ccccc2)c2ccccc2)NC(=O)[C@H](C(c2ccccc2)c2ccccc2)NC(=O)[C@H](C(c2ccccc2)c2ccccc2)NC(=O)[C@H](CCCCN)NC(=O)[C@H](CCCCN)NC1=O (cyclo([Dip][Dip][Dip]KKKKK))	0.0
N=C(N)NCCC[C@H](NC(=O)[C@H](CCCNC(=N)N)NC(=O)[C@@H](NC(=O)[C@@H](NC(=O)[C@H](CCCNC(=N)N)NC(=O)[C@@H](N)CCCNC(=N)N)C(c1ccccc1)c1ccccc1)C(c1ccccc1)c1ccccc1)C(=O)N[C@H](C(=O)O)C(c1ccccc1)c1ccccc1 (H-RR[Dip][Dip]RR[Dip]-OH)	0.0
N=C(N)NCCC[C@H](NC(=O)[C@H](CCCNC(=N)N)NC(=O)[C@@H](N)CCCNC(=N)N)C(=O)N[C@H](C(=O)N[C@H](C(=O)N[C@H](C(=O)O)C(c1ccccc1)c1ccccc1)C(c1ccccc1)c1ccccc1)C(c1ccccc1)c1ccccc1 (H-RRR[Dip][Dip][Dip]-OH)	0.0
N=C(N)NCCC[C@H](NC(=O)[C@@H](NC(=O)[C@@H](NC(=O)[C@H](CCCNC(=N)N)NC(=O)[C@H](CCCNC(=N)N)NC(=O)[C@@H](NC(=O)[C@@H](N)CCCNC(=N)N)C(c1ccccc1)c1ccccc1)C(c1ccccc1)c1ccccc1)C(c1ccccc1)c1ccccc1)C(=O)O (H-R[Dip]RR[Dip][Dip]R-OH)	0.0
N=C(N)NCCC[C@H](NC(=O)[C@H](Cc1ccc2ccccc2c1)NC(=O)[C@H](Cc1ccc2ccccc2c1)NC(=O)[C@H](CCCNC(=N)N)NC(=O)[C@H](CCCNC(=N)N)NC(=O)[C@H](Cc1ccc2ccccc2c1)NC(=O)[C@@H](N)CCCNC(=N)N)C(=O)O (H-R[2Nal]RR[2Nal][2Nal]R-OH)	0.0
N=C(N)NCCC[C@H](NC(=O)[C@H](CCCNC(=N)N)NC(=O)[C@H](CCCNC(=N)N)NC(=O)[C@@H](N)CCCNC(=N)N)C(=O)N[C@@H](Cc1ccc2ccccc2c1)C(=O)N[C@@H](Cc1ccc2ccccc2c1)C(=O)N[C@@H](Cc1ccc2ccccc2c1)C(=O)O (H-RRRR[2Nal][2Nal][2Nal]-OH)	0.0
NCCCC[C@H](NC(=O)[C@H](CCCCN)NC(=O)[C@@H](N)CCCCN)C(=O)N[C@@H](CCCCN)C(=O)N[C@H](C(=O)N[C@H](C(=O)N[C@H](C(=O)O)C(c1ccccc1)c1ccccc1)C(c1ccccc1)c1ccccc1)C(c1ccccc1)c1ccccc1 (H-KKKK[Dip][Dip][Dip]-OH)	0.0
N=C(N)NCCC[C@@H]1NC(=O)[C@H](CCCNC(=N)N)NC(=O)[C@H](C(c2ccccc2)c2ccccc2)NC(=O)[C@H](C(c2ccccc2)c2ccccc2)NC(=O)[C@H](C(c2ccccc2)c2ccccc2)NC(=O)[C@H](CCCNC(=N)N)NC1=O (cyclo([Dip][Dip][Dip]RRR))	1.0
N=C(N)NCCC[C@H](NC(=O)[C@H](CCCNC(=N)N)NC(=O)[C@@H](N)CCCNC(=N)N)C(=O)N[C@@H](CCCNC(=N)N)C(=O)N[C@H](C(=O)N[C@H](C(=O)N[C@H](C(=O)O)C(c1ccccc1)c1ccccc1)C(c1ccccc1)c1ccccc1)C(c1ccccc1)c1ccccc1 (H-RRRR[Dip][Dip][Dip]-OH)	0.0
